Every entry's value here was drawn from the Human Domainome abundance scans (Beltran et al. 2025).

# key: entry, value: abundance fitness
B1: GA-binding protein alpha chain, residues 172 to 250; numbered along this chain, Q06546 (parent)
chain: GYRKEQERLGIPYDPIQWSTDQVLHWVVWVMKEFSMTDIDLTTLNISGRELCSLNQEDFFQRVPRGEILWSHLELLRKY

- Variants of: B1
- Assay Details: abundance fitness (aPCA) (normalised: wild type 0, dead -1); higher = more abundant; growth selection in yeast, the domain comes from the species named
- Experimental Conditions: Homo sapiens
The response must contain the number and no unit.

# annotated cases, reported abundance fitness shown
>>> print(df.to_string())
   residue_change             metric  measurement
0            Q56D  abundance fitness       -0.262
1            I46F  abundance fitness       -0.237
2            T20K  abundance fitness        0.043
3            M36P  abundance fitness       -0.196
4            I16A  abundance fitness       -0.021

Ask: Answer with reported abundance fitness of `I46N`
Reply: -0.644

Ask: Answer with reported abundance fitness of `V27Q`
Reply: -0.271

Ask: Answer with reported abundance fitness of `G66R`
Reply: -0.562

Ask: Answer with reported abundance fitness of `C52V`
Reply: -0.122

Ask: Answer with reported abundance fitness of `W70G`
Reply: -0.843

Ask: Answer with reported abundance fitness of `D21S`
Reply: -0.029
